Test Target: GalNAc(b1-6)GalNAc
Assay Info: glycan array binding signal (z-score within array); higher = stronger binding
Applied Conditions: glycan notation: IUPAC condensed, linker removed
This is one part of a sample in which the strongest signals are shown more often than they occur.
Metric Name: glycan array binding signal (z-score)
Quick one: just the number, no unit, thanks!

Examples with their reported glycan array binding signal (z-score) follow.
pilr alpha (protein) MLYGVTQPKHLSASMGGSVEIPFSFYYPWELATAPDVRISWRRGHFHRQSFYSTRPPSIHKDYVNRLFLNWTEGQKSGFLRISNLQKQDQSVYFCRVELDTRSSGRQQWQSIEGTKLSIT = 0.632
CD72 ectodomain (Homo sapiens), P21854 (protein) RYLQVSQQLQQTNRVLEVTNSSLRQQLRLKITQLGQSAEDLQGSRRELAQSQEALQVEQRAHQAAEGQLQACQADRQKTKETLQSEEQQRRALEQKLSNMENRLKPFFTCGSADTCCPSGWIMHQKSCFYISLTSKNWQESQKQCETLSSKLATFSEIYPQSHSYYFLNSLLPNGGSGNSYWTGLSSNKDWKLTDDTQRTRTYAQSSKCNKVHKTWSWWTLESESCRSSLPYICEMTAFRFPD = -0.435

Then there is this binder:
Q: Quick one: give measured glycan array binding signal (z-score) for NKR-PIC (Mus musculus) (protein) GTGQKPSREKCCVFIQENLNKTTDCSVNLECPQDWLLHRDKCFHVSQVSNTWEEGQADCGRKGATLLLIQDQEELRFLLDSIKEKYNSFWIGLRFTLPDMNWKWINGTTFNSDVLKITGVTENGSCASILGDKVTPESCASDNRWICQKELNHETPSNDSGT
Ans: 0.458
